Assay: logP by HPLC (EEC directive 79/831 Annex V.A8, gradient method)
Type: physicochemical
Settings: gradient method, acetonitrile/0.1% aqueous phosphoric acid, compounds of formula (I), Table 1, read-out: log P*
reported metric: chromatographic logP

{"compound": "CCCOc1nn(CCC)c(=O)c2cc(Br)ccc12 [Example 1]", "chromatographic logP": 4.76}
{"compound": "CCCOc1nn(CCC(C)C)c(=O)c2ccc(Br)cc12 [Example 2]", "chromatographic logP": 5.91}
